meta.source: PubChem BioAssay AID1963860

- System: CN0375-F725-PDC KRAS spheroid viability;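 further: spheroids exposed to agents for 7 days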
- TEST_NAME: Anticancer human tumor CN0375-F725-PDC patient-derived colon carcinoma cell line growth inhibition [KRAS2]
- CONDITION: second compound 1 µM; first compound 0.316 µM; hits give low values; spheroids with HUVEC and MSC
OBSERVED_PROPERTY: viability, T/C (%)
Give bare numbers, in %.

compound="CC(C)NCC(C(=O)N1CCN(c2ncnc3c2C(C)CC3O)CC1)c1ccc(Cl)cc1 (stereo not drawn) + C=CC(=O)N1CCN(c2nc(OCC3CCCN3C)nc3c2CCN(c2cccc4cccc(C)c24)C3)CC1CC#N" assay_target="CN0375-F725-PDC KRAS spheroid viability" observed_property="viability, T/C" numeric_value=92.5
compound="Cn1nccc1Nc1nccc(-c2cc3c(s2)C(C)(C)N(CCN2CCOCC2)C3=O)n1 + CC1OCC2(CCN(c3cnc(Sc4ccnc(N)c4Cl)c(N)n3)CC2)C1N" assay_target="CN0375-F725-PDC KRAS spheroid viability" observed_property="viability, T/C" numeric_value=60.1

// below: viability, T/C requested for another compound
Ask | Entry O=C(c1cc(Cc2n[nH]c(=O)c3ccccc23)ccc1F)N1CCN(C(=O)C2CC2)CC1 + CNCc1ccccc1-c1csc(C(C)Nc2nc(C)nc3cc(OC)c(OC)cc23)c1 : reported viability, T/C = ?
Reply | 89.7
